- System: 945468-187-T-J2-PDC spheroids viability;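 note: spheroids exposed to compounds for seven days before reading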
- Method notes: Anticancer human tumor 945468-187-T-J2-PDC patient-derived rectal carcinoma cell line growth inhibition [PI3K]
- Test parameters: curve of first compound; second compound 0.1 µM; spheroids with HUVEC and MSC
pIC50: −log10 of the molar value.
Attribute measured: pIC50

Sample answers from the record:
| Compound | Recorded result |
| --- | --- |
| CC1(C)CCC(CN2CCN(c3ccc(C(=O)NS(=O)(=O)c4ccc(NCC5CCOCC5)c([N+](=O)[O-])c4)c(Oc4cnc5[nH]ccc5c4)c3)CC2)=C(c2ccc(Cl)cc2)C1 + CC(Nc1ncnc2nc[nH]c12)c1cc2cccc(Cl)c2c(=O)n1-c1ccccc1 | < 5.00 |
| CC(C)n1nc(-c2ccc3oc(N)nc3c2)c2c(N)ncnc21 + CC(Nc1ncnc2nc[nH]c12)c1cc2cccc(Cl)c2c(=O)n1-c1ccccc1 | < 7.00 |

Challenge: Return pIC50 (reported value) for this compound: CC(C)n1nc(-c2ccc3oc(N)nc3c2)c2c(N)ncnc21 + CC(Nc1ccc2c(c1)OCCn1cc(N3C(=O)OCC3C(F)F)nc1-2)C(N)=O
Response given: < 7.00

Challenge: Return pIC50 (reported value) for this compound: Cn1ncc(Cl)c1-c1cc(C(=O)NC(CN)Cc2cccc(F)c2)sc1Cl (stereo unspecified) + Cc1nc(NC(=O)N2CCCC2C(N)=O)sc1-c1ccnc(C(C)(C)C(F)(F)F)c1
Response given: < 5.00

Challenge: Return pIC50 (reported value) for this compound: CC1(C)CCC(CN2CCN(c3ccc(C(=O)NS(=O)(=O)c4ccc(NCC5CCOCC5)c([N+](=O)[O-])c4)c(Oc4cnc5[nH]ccc5c4)c3)CC2)=C(c2ccc(Cl)cc2)C1 + CC(Nc1ccc2c(c1)OCCn1cc(N3C(=O)OCC3C(F)F)nc1-2)C(N)=O
Response given: 5.11

Challenge: Return pIC50 (reported value) for this compound: CCCS(=O)(=O)Nc1ccc(F)c(C(=O)c2c[nH]c3ncc(-c4ccc(Cl)cc4)cc23)c1F + COc1c(OCCCN2CCOCC2)ccc2c3n(c(=NC(=O)c4cnc(N)nc4)nc12)CCN3
Response given: 5.22

The reported numbers originate from PubChem BioAssay AID1963972.
